# method_description: Drug transport across human Caco-2 cells
# Assay type: in vitro ADME
# run_conditions: apparent permeability coefficient, apical-to-basal (absorptive), Caco-2 monolayers, pH 7.2, 37° C., read-out: PEAB
measurement_name: Papp A→B at 10 µM (×10⁻⁶ cm/s)
Please reply with the bare figure in ×10⁻⁶ cm/s and do not write the unit itself.

Example results:
> print(dat)
                                   compound   measurement.name  measurement
1  CN1C(=O)N(c2cccc(C(F)(F)F)c2)C2=C(C(=O)CC2)C1c1ccc(C#N)cc1-c1ccncn1 (centres unmarked)  Papp A→B at 10 µM           52
2  Cc1nnc(-c2cc(C#N)ccc2C2C3=C(CCC3=O)N(c3cccc(C(F)(F)F)c3)C(=O)N2C)o1 (centres unmarked)  Papp A→B at 10 µM           49

Looking up CN1C(=O)N(c2cccc(C(F)(F)F)c2)C2=C(C(=O)CC2)[C@H]1c1ccc(C#N)cc1CNC1CCOCC1 , I see its Papp A→B at 10 µM listed as 16

Looking up CN1C(=O)N(c2cccc(C(F)(F)F)c2)C2=C(C(=O)CC2)C1c1ccc(C#N)cc1-c1cnn(C)c1 (centres unmarked) , I see its Papp A→B at 10 µM listed as 61

Looking up CN1C(=O)N(c2cccc(C(F)(F)F)c2)C2=C(C(=O)CCC2)C1c1ccc(C#N)cc1-c1ccn(C)c(=O)c1 (centres unmarked) [Example 15.8] , I see its Papp A→B at 10 µM listed as 3.5

Looking up CN1C(=O)N(c2cccc(C(F)(F)F)c2)C2=C(C(=O)CC2)[C@H]1c1ccc(C#N)cc1CNC(C)(C)C , I see its Papp A→B at 10 µM listed as 21

Looking up CN1C(=O)N(c2cccc(C(F)(F)F)c2)C2=C(C(=O)CC2)C1c1ccc(C#N)cc1-c1cncnc1 (centres unmarked) , I see its Papp A→B at 10 µM listed as 52

Looking up CN1C(=O)N(c2cccc(C(F)(F)F)c2)C2=C(C(=O)CC2)[C@H]1c1ccc(C#N)cc1C(N)=O , I see its Papp A→B at 10 µM listed as 4.8
